The entries below come with measured growth inhibition values attached.
# METHOD SUMMARY: NCI Yeast Anticancer Drug Screen. Data for the CLN2oe strain (AID 163);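 further: 0% = growth of vehicle-only control cultures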
# MEASUREMENT CONTEXT: S. cerevisiae CLN2oe strain, at 3.7 µM, active compounds read high
# Description: Growth inhibition of yeast strains with defined genetic alterations is measured as a screen for potential anti-cancer activity. Selected strains with alterations in DNA damage repair or cell cycle control were exposed to compounds and growth inhibition was measured relative to vehicle treated controls. The strain used in this assay is CLN2oe
About 79,000 compounds went through this panel and 15% of them were active in at least one assay; those are over-represented in the sample as a whole.
Express your answer in %, writing the number without its unit.

molecule="CC1CC(C)(C)CC(OCCN2CCCCC2)(c2ccccc2)C1 (stereo unspecified)" unit_tag=% endpoint_result=7

Form field growth inhibition, entry CCCCOP(=O)(CCCP(=O)(OCCCC)OCCCC)OCCCC : -3

Form field growth inhibition, entry CC1=CC(=C(c2ccc(N)cc2)c2ccc(N)cc2)C=CC1=N : 43

Form field growth inhibition, entry COC(=O)CCC(NC(=S)N/N=C(\C)c1ccccn1)C(=O)OC (stereo unspecified) : 2

Form field growth inhibition, entry Cc1cc(NCCCCCCCCNc2cc(C)nc3cc(N)ccc23)c2ccc(N)cc2n1 : -20

Form field growth inhibition, entry O=C(NO)Nc1cc(Cl)cc(Cl)c1 : 26

Form field growth inhibition, entry CCCCN(CCCC)CCC(O)c1cc2c(Cl)cc(Cl)cc2c2cc(C(F)(F)F)ccc12 (stereo unspecified) : 20

Form field growth inhibition, entry C#CCN(Cc1ccc2nc(N)[nH]c(=O)c2c1)c1ccc(C(=O)NC(CCC(=O)O)C(=O)O)cc1 (stereo unspecified) : 6

Form field growth inhibition, entry COc1cc(O)c2c(c1O)C(=O)c1cc(C)ncc1C2=O : 11

Form field growth inhibition, entry Nc1ccn(C2OC(COP(=O)(O)O)C(O)C2O)c(=O)n1 (stereo unspecified) : -2

Form field growth inhibition, entry CC(=O)OC1CCC2(C)C(=CC(C3C=C4CC(OC(C)=O)CCC4(C)C4=C3C3CC5OC6(CCC(C)CO6)C(C)C5C3(C)CC4)C3=C2CCC2(C)C3CC3OC4(CCC(C)CO4)C(C)C32)C1 (stereo unspecified) : -8

Form field growth inhibition, entry COC(=O)C1=C(C(=O)OC)C(C(=O)OC)C(C(=O)OC)C(C(=O)OC)(C(=O)OC)C(C(=O)OC)=C1C(=O)OC (stereo unspecified) : -21

Form field growth inhibition, entry O=c1[nH]c(-c2ccccc2)nc2c1sc1nc3ccccc3n12 : -72

Form field growth inhibition, entry Cc1ccc(NCCNCCO)c2c(=O)c3cc(O)ccc3sc12 : 14
